FYI, the data here is from patent US9540356B2.

Tested on: HeLa cells
assayText: cells
Format: cell-based
measurementParameters: Homo sapiens
For each entry below, report its IC50 value.

Worked examples follow.
Cc1nc(-c2ccc(C3N(C)c4ccccc4C(=O)N3c3ccccc3C(=O)c3ccccc3)s2)cs1 (stereo not drawn); 1000 to 3000 nM
CN1c2ccc(F)cc2C(=O)N(c2ccccc2)C1c1ccc(-c2csc(CN=[N+]=[N-])n2)s1 (stereo not drawn); < 3000 nM

# input for lookup
Tell me its IC50 given CN1c2ccccc2C(=O)N(c2ccccc2)C1c1ccc(-c2csc(CN=[N+]=[N-])n2)s1 (stereo not drawn) as the entry.
3000 to 5000 nM
